- Test system: Escherichia coli TOP10
- TEST: shrunken log2 fold change of peptide-encoding DNA abundance (4.5 h post-induction vs induction); higher = less antimicrobial activity (less host growth inhibition)
- TEST_CONTEXT: time post-induction: 4.5 h; library: site-saturation at positions 5, 18, 19, 20

| RESIDUE_STRING | TARGET_OF_ASSAY | shrunken log2 fold change |
| --- | --- | --- |
| RRIRLRPPRLPRPRPRPFWHPRP | Escherichia coli TOP10 | -0.0379 |
| RRIRQRPPRLPRPRPRPCSMPRP | Escherichia coli TOP10 | -0.273 |
| RRIRSRPPRLPRPRPRPWWGPRP | Escherichia coli TOP10 | 0.0289 |
| RRIRPRPPRLPRPRPRPVTRPRP | Escherichia coli TOP10 | -0.0129 |
| RRIRERPPRLPRPRPRPKWYPRP | Escherichia coli TOP10 | -0.175 |
| RRIRGRPPRLPRPRPRPYTNPRP | Escherichia coli TOP10 | -0.313 |
| RRIRIRPPRLPRPRPRPTLCPRP | Escherichia coli TOP10 | 0.0503 |
| RRIRSRPPRLPRPRPRPIMKPRP | Escherichia coli TOP10 | -0.292 |
| RRIRLRPPRLPRPRPRPCMMPRP | Escherichia coli TOP10 | -0.225 |
| RRIRKRPPRLPRPRPRPVQHPRP | Escherichia coli TOP10 | 0.134 |
| RRIRQRPPRLPRPRPRPHNYPRP | Escherichia coli TOP10 | -0.437 |
| RRIRNRPPRLPRPRPRPTKLPRP | Escherichia coli TOP10 | 0.0886 |
| RRIRNRPPRLPRPRPRPRMGPRP | Escherichia coli TOP10 | 0.0394 |
| RRIRSRPPRLPRPRPRPSGDPRP | Escherichia coli TOP10 | 0.118 |
| RRIRLRPPRLPRPRPRPHALPRP | Escherichia coli TOP10 | -0.396 |
| RRIRSRPPRLPRPRPRPDWQPRP | Escherichia coli TOP10 | -0.162 |
| RRIRQRPPRLPRPRPRPTVSPRP | Escherichia coli TOP10 | -0.14 |
| RRIRGRPPRLPRPRPRPNHSPRP | Escherichia coli TOP10 | 0.195 |
| RRIRQRPPRLPRPRPRPRREPRP | Escherichia coli TOP10 | 0.08 |
| RRIRSRPPRLPRPRPRPVFSPRP | Escherichia coli TOP10 | -0.43 |
| RRIRPRPPRLPRPRPRPTCNPRP | Escherichia coli TOP10 | -0.142 |
| RRIRLRPPRLPRPRPRPSAMPRP | Escherichia coli TOP10 | -0.347 |
| RRIRYRPPRLPRPRPRPMCSPRP | Escherichia coli TOP10 | -0.116 |
| RRIRSRPPRLPRPRPRPVKFPRP | Escherichia coli TOP10 | 0.0903 |

====

Measured shrunken log2 fold change, listed per entry.
- Test system: Escherichia coli TOP10;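 also: peptides expressed intracellularly from a pBAD plasmid library in pooled LB shake-flask culture, induced with 0.3% L-arabinose, DNA abundance read by NGS, three biological replicates, DESeq2 with apeglm shrinkage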
- TEST: shrunken log2 fold change of peptide-encoding DNA abundance (4.5 h post-induction vs induction); higher = less antimicrobial activity (less host growth inhibition)
- TEST_CONTEXT: time post-induction: 4.5 h; library: site-saturation at positions 5, 18, 19, 20

| RESIDUE_STRING | shrunken log2 fold change |
| --- | --- |
| RRIRMRPPRLPRPRPRPNKTPRP | -0.0156 |
| RRIRKRPPRLPRPRPRPGFWPRP | 0.537 |
| RRIRERPPRLPRPRPRPQENPRP | -0.164 |
| RRIRMRPPRLPRPRPRPVSRPRP | 0.796 |
| RRIRQRPPRLPRPRPRPKLEPRP | 0.563 |
| RRIRERPPRLPRPRPRPFNFPRP | -0.298 |
| RRIRLRPPRLPRPRPRPVTKPRP | 0.0485 |
| RRIRFRPPRLPRPRPRPINIPRP | -0.113 |
| RRIRVRPPRLPRPRPRPVKSPRP | -0.0272 |
| RRIRQRPPRLPRPRPRPDMEPRP | 0.104 |
| RRIRGRPPRLPRPRPRPFSGPRP | -0.325 |
| RRIRCRPPRLPRPRPRPDMYPRP | -0.561 |
| RRIRIRPPRLPRPRPRPNVCPRP | -0.204 |
| RRIRQRPPRLPRPRPRPEMRPRP | 1.13 |
| RRIRNRPPRLPRPRPRPSFDPRP | -0.427 |
| RRIRLRPPRLPRPRPRPYIEPRP | -0.176 |
| RRIRKRPPRLPRPRPRPYVQPRP | -0.332 |
| RRIRQRPPRLPRPRPRPIKSPRP | -0.117 |
| RRIRDRPPRLPRPRPRPAKKPRP | -0.00565 |
| RRIRKRPPRLPRPRPRPQVAPRP | -0.0663 |
| RRIRHRPPRLPRPRPRPVHMPRP | -0.0408 |
| RRIRHRPPRLPRPRPRPAVDPRP | 0.0722 |
| RRIRPRPPRLPRPRPRPIVKPRP | 0.000733 |
| RRIRMRPPRLPRPRPRPGAYPRP | 0.0666 |
| RRIRVRPPRLPRPRPRPVPSPRP | -0.0143 |
| RRIRCRPPRLPRPRPRPIQYPRP | -0.308 |
| RRIRGRPPRLPRPRPRPIDMPRP | -0.0207 |
| RRIRYRPPRLPRPRPRPQASPRP | -0.0259 |
| RRIRIRPPRLPRPRPRPHDTPRP | -0.548 |
| RRIRNRPPRLPRPRPRPWTPPRP | -0.0926 |
| RRIRCRPPRLPRPRPRPNIFPRP | -0.432 |
| RRIRTRPPRLPRPRPRPKREPRP | 0.319 |
| RRIRARPPRLPRPRPRPSGGPRP | 0.115 |
| RRIRVRPPRLPRPRPRPLVTPRP | -0.348 |
| RRIRFRPPRLPRPRPRPHVHPRP | -0.0448 |
| RRIRTRPPRLPRPRPRPWIKPRP | -0.231 |
| RRIRVRPPRLPRPRPRPTNFPRP | -0.287 |
| RRIRHRPPRLPRPRPRPKRMPRP | 0.101 |
| RRIRCRPPRLPRPRPRPIYHPRP | -0.905 |
| RRIRLRPPRLPRPRPRPVDEPRP | -0.0573 |
| RRIRCRPPRLPRPRPRPAHAPRP | 0.373 |
| RRIRNRPPRLPRPRPRPDDSPRP | -0.263 |
| RRIRIRPPRLPRPRPRPLDQPRP | -0.127 |
| RRIRWRPPRLPRPRPRPFKHPRP | -0.405 |
| RRIRCRPPRLPRPRPRPWKTPRP | -0.152 |
| RRIRMRPPRLPRPRPRPQEMPRP | -0.0105 |
| RRIRDRPPRLPRPRPRPRFWPRP | 0.935 |
| RRIRCRPPRLPRPRPRPTQRPRP | 0.514 |
| RRIRSRPPRLPRPRPRPCLRPRP | -0.385 |
| RRIRWRPPRLPRPRPRPMEIPRP | -0.0287 |
| RRIRSRPPRLPRPRPRPQCTPRP | 0.294 |
| RRIRHRPPRLPRPRPRPCWHPRP | -0.112 |
| RRIRNRPPRLPRPRPRPKQLPRP | 0.252 |
| RRIRLRPPRLPRPRPRPQNQPRP | -0.159 |
| RRIRTRPPRLPRPRPRPPRMPRP | 0.165 |
| RRIRKRPPRLPRPRPRPFWVPRP | -0.175 |
| RRIRMRPPRLPRPRPRPYLSPRP | -0.0214 |
| RRIRHRPPRLPRPRPRPSPWPRP | 0.0405 |
| RRIRMRPPRLPRPRPRPMIFPRP | 0.0369 |
| RRIRHRPPRLPRPRPRPFNVPRP | 1.22 |
| RRIRLRPPRLPRPRPRPKWLPRP | 0.139 |

Where these numbers come from: the supplement of paper PMC9112550
